target: Voltage-gated inwardly rectifying potassium channel KCNH2 (Homo sapiens); format: functional; note: assay procedure not described here
Sequence (Q12809 whole entry): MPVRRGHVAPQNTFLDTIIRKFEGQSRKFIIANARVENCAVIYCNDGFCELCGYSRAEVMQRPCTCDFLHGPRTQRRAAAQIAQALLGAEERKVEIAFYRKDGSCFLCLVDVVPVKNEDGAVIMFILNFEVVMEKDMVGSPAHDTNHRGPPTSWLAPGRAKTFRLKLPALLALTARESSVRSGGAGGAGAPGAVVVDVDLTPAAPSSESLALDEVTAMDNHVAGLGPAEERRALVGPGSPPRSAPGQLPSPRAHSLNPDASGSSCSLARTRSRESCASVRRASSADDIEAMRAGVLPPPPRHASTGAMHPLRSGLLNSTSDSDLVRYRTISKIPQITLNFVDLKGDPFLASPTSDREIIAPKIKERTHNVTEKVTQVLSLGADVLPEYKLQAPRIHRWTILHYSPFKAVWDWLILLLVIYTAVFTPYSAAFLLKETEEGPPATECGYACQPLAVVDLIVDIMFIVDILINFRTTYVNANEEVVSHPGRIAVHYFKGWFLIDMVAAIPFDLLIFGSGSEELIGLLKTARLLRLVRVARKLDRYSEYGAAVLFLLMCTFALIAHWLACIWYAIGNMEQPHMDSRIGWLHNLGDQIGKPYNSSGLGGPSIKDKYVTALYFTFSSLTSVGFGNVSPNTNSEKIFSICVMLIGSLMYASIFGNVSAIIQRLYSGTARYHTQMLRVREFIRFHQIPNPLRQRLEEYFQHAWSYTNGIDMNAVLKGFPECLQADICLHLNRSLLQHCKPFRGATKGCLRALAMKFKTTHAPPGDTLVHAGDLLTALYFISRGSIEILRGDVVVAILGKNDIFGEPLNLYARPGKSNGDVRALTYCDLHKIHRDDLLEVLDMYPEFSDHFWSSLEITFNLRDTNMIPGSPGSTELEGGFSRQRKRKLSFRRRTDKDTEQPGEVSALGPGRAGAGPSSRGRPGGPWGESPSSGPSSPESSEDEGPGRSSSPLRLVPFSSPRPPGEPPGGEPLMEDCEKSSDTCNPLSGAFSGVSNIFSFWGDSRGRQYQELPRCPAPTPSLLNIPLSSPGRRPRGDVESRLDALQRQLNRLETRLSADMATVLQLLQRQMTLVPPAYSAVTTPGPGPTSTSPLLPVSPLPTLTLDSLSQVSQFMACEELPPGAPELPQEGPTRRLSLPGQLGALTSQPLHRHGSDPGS
Exercise: for every item that follows, state its recorded AC50.

Here are 10 compounds together with their reported answers.
compound: CC(CCc1ccc(O)cc1)NCCc1ccc(O)c(O)c1 (stereo not given) [DOBUTAMINE]
study_system: Voltage-gated inwardly rectifying potassium channel KCNH2 (Homo sapiens); note: assay procedure not described here
observed_result: 20.3 µM
--
compound: C=CC[C@@H]1/C=C(\C)C[C@H](C)C[C@H](OC)[C@H]2O[C@@](O)(C(=O)C(=O)N3CCCC[C@H]3C(=O)O[C@H](/C(C)=C/[C@@H]3CC[C@@H](O)[C@H](OC)C3)[C@H](C)[C@@H](O)CC1=O)[C@H](C)C[C@@H]2OC [TACROLIMUS ANHYDROUS]
study_system: Voltage-gated inwardly rectifying potassium channel KCNH2 (Homo sapiens); note: assay procedure not described here
observed_result: > 30 µM
--
compound: COc1cc2c(cc1OC)CC(=O)N(CCCN(C)C[C@H]1Cc3cc(OC)c(OC)cc31)CC2 [IVABRADINE]
study_system: Voltage-gated inwardly rectifying potassium channel KCNH2 (Homo sapiens); note: assay procedure not described here
observed_result: 30 µM
--
compound: C[C@]12CC[C@@H]3c4ccc(O)cc4C[C@@H](CCCCCCCCC[S+]([O-])CCCC(F)(F)C(F)(F)F)[C@H]3[C@@H]1CC[C@@H]2O (stereo not given in full) [FULVESTRANT]
study_system: Voltage-gated inwardly rectifying potassium channel KCNH2 (Homo sapiens); note: assay procedure not described here
observed_result: > 30 µM
--
compound: Cc1ncc2n1-c1ccc(Cl)cc1C(c1ccccc1F)=NC2 [MIDAZOLAM]
study_system: Voltage-gated inwardly rectifying potassium channel KCNH2 (Homo sapiens); note: assay procedure not described here
observed_result: > 30 µM
--
compound: CC(C)NCC(O)c1ccc(O)c(O)c1 (stereo not given) [ISOPROTERENOL]
study_system: Voltage-gated inwardly rectifying potassium channel KCNH2 (Homo sapiens); note: assay procedure not described here
observed_result: > 30 µM
--
compound: OCc1cc(C(O)CNCCCCCCOCCCCc2ccccc2)ccc1O (stereo not given) [SALMETEROL]
study_system: Voltage-gated inwardly rectifying potassium channel KCNH2 (Homo sapiens); note: assay procedure not described here
observed_result: 8.1 µM
--
compound: COc1c2ccoc2cc2oc(=O)ccc12 [BERGAPTEN]
study_system: Voltage-gated inwardly rectifying potassium channel KCNH2 (Homo sapiens); note: assay procedure not described here
observed_result: > 30 µM
--
compound: CCOC(=O)N1CSC[C@H]1C(=O)O [TELMESTEINE]
study_system: Voltage-gated inwardly rectifying potassium channel KCNH2 (Homo sapiens); note: assay procedure not described here
observed_result: > 30 µM
--
compound: C=C1/C(=C\C=C2/CCC[C@]3(C)[C@@H]([C@H](C)/C=C/[C@@H](O)C4CC4)CC[C@@H]23)C[C@@H](O)C[C@@H]1O [CALCIPOTRIENE]
study_system: Voltage-gated inwardly rectifying potassium channel KCNH2 (Homo sapiens); note: assay procedure not described here
observed_result: > 30 µM

For every record below, what is its AC50?
1. NC(=O)OCC(O)COc1ccc(Cl)cc1 (stereo not given) [CHLORPHENESIN CARBAMATE]
2. OC[C@H]1O[C@@H](c2ccc(Cl)c(Cc3ccc(O[C@H]4CCOC4)cc3)c2)[C@H](O)[C@@H](O)[C@@H]1O [EMPAGLIFLOZIN]
3. C[C@@H]1C[C@H]2[C@@H]3CCC4=CC(=O)C=C[C@]4(C)[C@@]3(Cl)[C@@H](O)C[C@]2(C)[C@@]1(OC(=O)c1ccco1)C(=O)CCl [MOMETASONE FUROATE]
4. CC[C@H](c1ccc(O)cc1)[C@@H](CC)c1ccc(O)cc1 [HEXESTROL]
5. C=CCNc1nc(NCC=C)nc(N2CCN(C(c3ccc(F)cc3)c3ccc(F)cc3)CC2)n1 [ALMITRINE]

### Response
1. > 30 µM
2. > 30 µM
3. > 30 µM
4. > 30 µM
5. > 30 µM

Taken from ChEMBL document CHEMBL5291721.
